- Test system: CEM cells HIV-1 protection, formazan growth assay
- protocolSummary: NCI AIDS Antiviral Assay
- recordedConditions: measured here: growth of uninfected CEM cells
IC50 values by entry
Please give a number only; it is taken to be in µM.

compound	IC50, µM
CCN(Cc1ccccc1)c1ccc(/C=C/c2ccnc3ccccc23)cc1	8.32

In one line, give reported IC50 of the entry CC1CC(N)=C(C#N)C1(C#N)C#N (stereo not given) .
138

In one line, give reported IC50 of the entry CCOC(=O)C(=O)CC(=O)C1=C(c2ccccc2OC)CC(c2cccs2)=CC1=O .
32.4

----------
- Test system: CEM cells HIV-1 protection, formazan growth assay
- protocolSummary: NCI AIDS Antiviral Assay
- recordedConditions: measured here: growth of uninfected CEM cells
readoutKind: IC50

compound	systemTested	IC50
NC(=O)NC1C(c2ccccc2)=NOC1C(N)=O (stereo unspecified)	CEM cells HIV-1 protection, formazan growth assay	> 200 µM
Oc1ccc(Cl)cc1-c1cc(-c2ccccc2)nc(=S)[nH]1	CEM cells HIV-1 protection, formazan growth assay	170 µM
CC(=O)OC12c3ccccc3C(c3ccccc31)C1C(=O)N(Nc3ccccc3)C(=O)C12 (stereo unspecified)	CEM cells HIV-1 protection, formazan growth assay	> 200 µM
CC(C)(C)c1cc2c3c(c1)C(C(F)(F)F)(C(F)(F)F)O[Te]3(C)OC2(C(F)(F)F)C(F)(F)F	CEM cells HIV-1 protection, formazan growth assay	> 31.6 µM

In one line, give reported IC50 of the entry O=C(S)C(=O)Cc1nnn(-c2ccccc2)c1-c1ccccc1 .
> 245 µM

In one line, give reported IC50 of the entry O=C(Cc1ccccc1)N=Nc1c(O)[nH]c2ccccc12 .
> 200 µM
